- method description: in vitro
- experimental setup: hamster, hepatocytes, % remaining at 120 min (hamster hepatocytes, compound/ritonavir 2:1)
remaining at 2 h, 1 µM vs 3%: less than gives T; not less than gives F.

Illustrative cases are given below, each with its answer.
* COc1cccc2[nH]c(C(=O)N[C@@H](Cc3cccc(F)c3)C(=O)N[C@@H](C[C@@H]3CCNC3=O)C(=O)COc3c(F)c(F)c(CO)c(F)c3F)cc12 | T
* CC(C)(C)[C@H](NC(=O)C(F)(F)F)C(=O)N1C[C@H]2[C@@H]([C@H]1C(=O)N[C@@H](C[C@@H]1CCNC1=O)C(=O)COc1c(F)c(F)c(CO)c(F)c1F)C2(C)C | F
* COc1cccc2[nH]c(C(=O)N[C@@H](Cc3cccc(F)c3)C(=O)N[C@@H](C[C@@H]3CCNC3=O)C(=O)COc3c(F)c(F)c(C(C)(C)O)c(F)c3F)cc12 | T
* COc1cccc2[nH]c(C(=O)N[C@@H](Cc3cccc(F)c3)C(=O)N[C@@H](C[C@@H]3CCNC3=O)C(=O)COc3c(F)c(F)c(C(C)O)c(F)c3F)cc12 (some centres unmarked) | T

Let's switch to this molecule now.
q: API: query returns whether the molecule falls strictly under 3% in remaining at 2 h, 1 µM. Query: "CC(C)(O)c1c(F)c(F)c(OCC(=O)[C@H](C[C@@H]2CCNC2=O)NC(=O)[C@@H]2[C@@H]3[C@H](CN2C(=O)[C@@H](NC(=O)C(F)(F)F)C(C)(C)C)C3(C)C)c(F)c1F"
a: F

Ref: paper PMC12169608
